molecular target: human CD40 on cells (human, UniProt P25942 21-277); assay: cell-based or functional assay
Sequence (P25942 21-277): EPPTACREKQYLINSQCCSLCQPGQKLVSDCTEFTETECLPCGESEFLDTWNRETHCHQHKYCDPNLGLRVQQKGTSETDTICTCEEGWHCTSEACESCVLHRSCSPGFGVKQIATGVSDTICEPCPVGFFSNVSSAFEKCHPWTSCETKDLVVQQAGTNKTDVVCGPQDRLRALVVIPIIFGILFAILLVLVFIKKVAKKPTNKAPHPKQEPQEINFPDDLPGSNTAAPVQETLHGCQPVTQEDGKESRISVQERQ
Exercise: for every item that follows, state its recorded Maximum fold (fold), crosslinked.
Answer with a number only, understood to be in fold.

Supply recorded Maximum fold (fold), crosslinked for PR006504 (antibody, human IgG1, kappa, V domains shown, PR003379 variant L:N92V; human IgG1 L234A, L235A, G237A) VH: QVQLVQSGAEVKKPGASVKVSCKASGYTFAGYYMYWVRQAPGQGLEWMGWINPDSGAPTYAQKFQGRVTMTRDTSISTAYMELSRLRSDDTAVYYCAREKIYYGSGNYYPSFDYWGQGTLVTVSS VL: DIQLTQSPSFLSASVGDRVTITCRASQGISSYLAWYQQKPGKAPKLLIYAASTLQSGVPSRFSGSGSGTEFTLTISSLQPEDFATYYCQQLVSYPWTFGQGTKVEIKR here.
5.21

Supply recorded Maximum fold (fold), crosslinked for PR006498 (antibody, human IgG1, kappa, V domains shown, PR003379 variant L:N92I; human IgG1 L234A, L235A, G237A) VH: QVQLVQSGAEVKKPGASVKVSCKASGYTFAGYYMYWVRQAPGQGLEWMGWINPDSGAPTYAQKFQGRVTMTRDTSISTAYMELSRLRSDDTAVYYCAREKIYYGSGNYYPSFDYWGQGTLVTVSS VL: DIQLTQSPSFLSASVGDRVTITCRASQGISSYLAWYQQKPGKAPKLLIYAASTLQSGVPSRFSGSGSGTEFTLTISSLQPEDFATYYCQQLISYPWTFGQGTKVEIKR here.
5.53

Supply recorded Maximum fold (fold), crosslinked for PR006496 (antibody, human IgG1, kappa, V domains shown, PR003379 variant L:N92F; human IgG1 L234A, L235A, G237A) VH: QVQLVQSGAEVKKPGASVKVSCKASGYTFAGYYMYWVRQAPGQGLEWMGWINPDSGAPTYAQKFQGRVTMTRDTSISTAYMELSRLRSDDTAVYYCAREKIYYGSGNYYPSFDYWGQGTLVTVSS VL: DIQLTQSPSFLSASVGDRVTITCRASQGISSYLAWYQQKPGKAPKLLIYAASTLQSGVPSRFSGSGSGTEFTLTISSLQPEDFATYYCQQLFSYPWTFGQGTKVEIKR here.
5.03
